species on record: Homo sapiens; assay: Inhibition of [15N]-labeled humanized-Xenopus MDM2 (13-119 amino acids) interaction with p53 at 1 mM by NMR method
Calls of active or inactive are those of the source. The rule behind the calls is not given here.
Possible outcomes: y for active, n for inactive

compound	group
Clc1ccccc1	n
CCOc1cc(C(C)(C)C)ccc1C1=NC(c2ccccc2)CN1C(=O)N1CCN(CCCS(C)(=O)=O)CC1 (stereo not given)	y
c1c[nH]cn1	n
CCOc1cc(C(C)(C)C)ccc1C1=NCCN1C(=O)N1CCN(CCCS(C)(=O)=O)CC1	n
CC1=N[C@@](C)(c2ccc(Cl)cc2)[C@@](C)(c2ccc(Cl)cc2)N1C(=O)N1CCN(CCCS(C)(=O)=O)CC1	y

---

organism: Homo sapiens; assay: Inhibition of Humanized-Xenopus MDM2 (13-119 amino acids) interaction with p53 at 1 to 2.5 mM by SPR analysis
The source made the active and inactive calls. The calls are words filed in the database; no cut-off is given here.
test readout: inhibition

molecule smiles	test readout	recorded result
c1c[nH]cn1	inhibition	inactive
Clc1ccccc1	inhibition	inactive
CCOc1cc(C(C)(C)C)ccc1-c1ncc[nH]1	inhibition	inactive
CC1=N[C@@H](c2ccccc2)[C@@H](c2ccccc2)N1	inhibition	inactive

---

experiment: Inhibition of Humanized-Xenopus MDM2 (13-119 amino acids) interaction with p53 by SPR analysis; design: species or system Homo sapiens
pKd: −log10 of the molar value.
Decide by pKd: equal to or exceeding 5 means met, less means not met.

compound	group
CCOc1cc(C(C)(C)C)ccc1C1=NC(c2ccccc2)CN1C(=O)N1CCN(CCCS(C)(=O)=O)CC1 (stereo not given)	not met
CCOc1cc(C(C)(C)C)ccc1C1=N[C@@](C)(c2ccc(Cl)cc2)[C@@](C)(c2ccc(Cl)cc2)N1	not met
CCOc1cc(C(C)(C)C)ccc1C1=N[C@@](C)(c2ccc(Cl)cc2)[C@@](C)(c2ccc(Cl)cc2)N1C(=O)N1CCN(CCCS(C)(=O)=O)CC1 [RO-5045337]	met
CC1=N[C@@H](c2ccc(Cl)cc2)[C@@H](c2ccc(Cl)cc2)N1	not met
CC1=N[C@@](C)(c2ccc(Cl)cc2)[C@@](C)(c2ccc(Cl)cc2)N1C(=O)N1CCN(CCCS(C)(=O)=O)CC1	not met
